Consider the following compounds; for each one, report its half-life.
Test: Half life in mouse at 150 mg/kg, po
Type: ADME, organism-based
Parameters: dose 150 mg/kg, route oral
Details: in vivo
Give bare numbers, in h.

INSERT INTO results (compound, unit_of_measure, numeric_result) VALUES
  ('CC1=C2CC[C@@](C)(O)[C@@H]2[C@H]2OC(=O)[C@@H](CN(C)C)[C@@H]2CC1.Cl [DIMETHYLAMINOMICHELIOLIDE HYDROCHLORIDE]', 'h', 9.82);

Can you share its half-life? I mean this compound: C=C1C(=O)O[C@H]2[C@H]1CCC(C)=C1CC[C@@](C)(O)[C@@H]12 [MICHELIOLIDE]
7.92
